system: tetraploidem Roggen; assay: Field test of gametocidal activity (sterilisation of anthers), tetraploid rye; type: in vivo; details: Sorte Belta; V. Periode der Organogenese; 1%ige wäßrige Emulsion; 6 kg/ha
For each entry below, report its Anzahl von Körnern der Ähre im Isolator value.

// Anzahl von Körnern der Ähre im Isolator lookup, key: O=C(O)CCCCS(=O)(=O)CCCCC(=O)O [Beispiel 54]
0,0

// returns reported Anzahl von Körnern der Ähre im Isolator for input O=C(O)CCCCSCCCCC(=O)O [Beispiel 52]
0,1

What measured Anzahl von Körnern der Ähre im Isolator goes with CCCCC(CC)COC(=O)CCCCSCCCCC(=O)OCC(CC)CCCC (centres unmarked) ?
0,0

Could you tell me which Anzahl von Körnern der Ähre im Isolator is on file for O=C(O)CCCCSCCCCC(=O)O [Beispiel 51, d, δ' -Thiodivaleriansäure] ?
0,3

GET /values?readout=Anzahl von Körnern der Ähre im Isolator&item= O=C(O)CCCCS(=O)(=O)CCCCC(=O)O [Beispiel 53, δ, δ' -Sulfonylvaleriansäure]
0,0

Consider the compound shown here: "CCCCOC(=O)CCCCSCCCCC(=O)OCCCC" What is its recorded Anzahl von Körnern der Ähre im Isolator?
0,0

So what's the measured Anzahl von Körnern der Ähre im Isolator for this one? "CCCCCCCCCCSCCCCC(=O)O"
0,0

Could you tell me which Anzahl von Körnern der Ähre im Isolator is on file for O=C(O)CCCCS(=O)(=O)CCCCC(=O)O [Beispiel 55] ?
0,0

###

Give measured Anzahl von Körnern der Ähre im Isolator for each item. Keep answers brief.
System: diploidem Roggen
Assay: Field test of gametocidal activity (sterilisation of anthers), diploid rye
Assay type: in vivo
Conditions: Sorte Gibrid 1861/79; V. und VI. Periode der Organogenese; 1%ige wäßrige Emulsion; 8 kg/ha
Text: Die gametozide Aktivitat der erfindungsgemäßen Sterilisationsmittel war im Feldversuch in verschiedenen bodenklimatischen Zonen mit Teilstücken von 10 m^2 Größe in drei- bis viermaliger Wiederholung festgestellt. Jedes Sterilisationsmittel wurde mindenstens 5 Jahre lang geprüft. Die Entwicklung der Perioden der Organogenese wird zytologisch überwacht. Die Behandlung von Pflanzen mit dem Sterilisationsmittel erfolgt am Anfang der fünften Periode der Organogenese nach Kupermann. […]

Name the reported Anzahl von Körnern der Ähre im Isolator value associated with the compound CCCCCCCCCCSCCCCC(=O)O [Beispiel 47, 4-Karboxybutyldezylsulfid]
0,0

Entry under review: CCCCOC(=O)CCCCSCCCCC(=O)OCCCC [Beispiel 44] . Reported Anzahl von Körnern der Ähre im Isolator?
0,0

For the compound CCCCC(CC)COC(=O)CCCCSCCCCC(=O)OCC(CC)CCCC (stereo not shown) [Beispiel 50] , what Anzahl von Körnern der Ähre im Isolator is on record?
0,0

GET /values?readout=Anzahl von Körnern der Ähre im Isolator&item= O=C(O)CCCCSCCCCC(=O)O [Beispiel 46]
0,1

Quick one: Anzahl von Körnern der Ähre im Isolator for O=C(O)CCCCS(=O)(=O)CCCCC(=O)O [Beispiel 49] ?
0,0

Value lookup for Anzahl von Körnern der Ähre im Isolator; key = O=C(O)CCCCSCCCCC(=O)O [Beispiel 45, δ, δ' -Thiodivaleriansäure]
0,1

Fill in: Anzahl von Körnern der Ähre im Isolator of O=C(O)CCCCS(=O)(=O)CCCCC(=O)O [Beispiel 48, δ , δ' -Sulfonyldivaleriansäure] is ___
0,0

###

test: Toxicity in animal test; details: rat, in vivo; für Ratten
readout.type: LD50

Consider the molecule CCCCC(CC)COC(=O)CCCCSCCCCC(=O)OCC(CC)CCCC (stereo not shown) and give its measured LD50.
> 2000 mg/kg

Ref: patent EP0362382A1
